TGT: Recombinant soluble trimeric human BAFF (furin-cleaved human BAFF 134-285) (human, UniProt Q9Y275 134-285)
PROTOCOL_DETAILS: cell-based or functional assay
READOUT: Soluble trimeric huBAFF (50 pM) Neutralization IC50
# output: bare number, implied unit pM

BINDER	UNIT_LABEL	MEASURED
352G11A10 (antibody, V domains shown) VH: QVQLQQSGPELVKPGGSVRISCKASGYSLISYYIHWVKQRPGQGLEWIGLTFPGSGNSKFIEKFKGKATLTADTSSNTAYIQLSSLTSEDSAVYYCTRGDFGNYLAYWYFDVWGTGTTVTVSS VL: DIKMTQSPSSIYASLGERVTITCKASQDIHSYLSWFQQKPGKSPKTLMYRTNRLVDGVPSRFSGSGSGQDYSLTIRSLEYEDMGNYYCLQYDEFPYTFGGGAKLEVK	pM	99
317H2A6 (antibody, V domains shown) VH: QVTLKESGPGILQPSQTLSLTCSFSGFSLRTFGMGVGWIRQPSGKGLEWLAHIWWNGDKYYDPALKSRLTISKDTSENRVFLNIANVDTTDTAPYYCVRIGPSITTVAEGFAYWGQGTLVTVSA VL: DIVMTQSQKFLSTTIGDRVSITCKASQNVGSAVVWYQQKPGQPPKLLITSASNRYSGVPDRFTGSGSGTDFTLTVSNVQSVDLADYFCQQYSNYPLTFGAGTKLELK	pM	97

// next entry
Given 1002E8A6 (antibody, V domains shown) VH: EVQLQQSGPELVKPGASVKMSCKASGYTITSYVMHWVKQKPGQGLEWIGYINPNNDGTKYNEKFKGKATLTSDKSSNTAYMELSSLTSEDSAVYYCARGDYSNYFYWYFDVWGAGTTVTVSS VL: DIKMTQSPSSMYASLGERVTITCKASQDINSYLTWFQQKPGKSPETLIYRANRLVSGVPSRFSGSGSGQDYSLTISSLEYEDMGIYSCLQYDEFPYTFGGGTKLEIK , state its recorded Soluble trimeric huBAFF (50 pM) Neutralization IC50. 107
